# Tested on: HL-60(TB) leukemia
# measurementDescription: NCI tumour cell line growth inhibition, 48 h
Listed compounds paired with reported TGI

# annotated cases, reported TGI shown
NNC(=O)N/N=C1\C(=O)N(c2ccc(Cl)c(Cl)c2)C(=O)C(=O)C1c1nc2ccccc2s1 (stereo unspecified) :: > 100 µM
COc1cc(-c2[o+]c3cc(O)cc(O)c3cc2O)cc(O)c1O :: > 100 µM
CC(C)NC(=O)CCN(C(=O)O)S(=O)(=O)c1ccc(NC(=O)c2ccccc2)cc1 :: > 64 µM

Ask: Return reported TGI; argument: "Cc1ccc(Cl)c(Nc2ccccc2C(=O)O)c1Cl"
Result: 51.4 µM

Ask: Next compound up: COP(=O)(OC)C(O)CC(C)C (stereo unspecified)
Result: > 100 µM

Ask: Entry to check: "OCc1ccc(N2CCc3ccccc3C2)cc1Cl"
Result: 61.4 µM
